experiment: protein stability index of a GFP-peptide fusion (GPS, HEK-293T) (PSI 1-6); higher = more stable; conditions: treatment: MLN4924 1 uM, 8 h; c terminus: a fixed tail appended;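 note: 24-mer peptide tiles fused after GFP, lentivirally expressed, FACS-sorted into six equal bins by GFP/DsRed ratio, decoded by Illumina sequencing, PSI is the read-weighted mean bin number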
# protein stability index listing for each entry below
Parameter measured: protein stability index

INSERT INTO assay_data (chain_sequence, readout_value) VALUES
  ('NDFCSFYNILKTCRGHTLERSVFS [CARM1]', 2.4),
  ('HNYKEMRQLMKVVNEMCPNITRIY [CPXM2]', 2.17),
  ('SAVEKEPARAPPEPPHNLFCAPGS [SERTAD3]', 4.98),
  ('RGSETTYESSADIAGDEGTQIPAD [TAF7L]', 5.62),
  ('QDEVPDEVENQFILRLPLEHACTV [TAF7L]', 4.47),
  ('DTCRTQLVWLVRELVKSGVLGADG [INTS3]', 2.37),
  ('TSEQAPSSAPRDVQARMLSSTTIL [PTPRD]', 4.03),
  ('GPDHRLRLWRLFQTLDVNRDGGLC [SLC25A25]', 2.23),
  ('HIDPEIQDGSPTTSRRPSGTGTGP [PDLIM4]', 5.42),
  ('GHNFCRGCVSRCWEVQVSPTCPVC [TRIM35]', 3.83),
  ('GQPAPVSMVPPSPAMAASKALGSD [SNAP91]', 5.01),
  ('GATGECQNFLDPGYPLPKLDMNFS [ZNF449]', 3.67),
  ('QARLRDVSRREGALGWAPAAPPPL [ZBED3]', 3.6);

====

test: protein stability index of a GFP-peptide fusion (GPS, HEK-293T) (PSI 1-6); higher = more stable; settings: treatment: DMSO; c terminus: a fixed tail appended
protein stability index listing for selected sequences.
Parameter measured: protein stability index

INSERT INTO assay_data (chain_sequence, parameter_measured, readout_value) VALUES
  ('LRGKFKRPPLRRVRMSADAMLKAL [TNNI2]', 'protein stability index', 2.25),
  ('LRRGHPAGGEENMTETDAFYKREM [CASP6]', 'protein stability index', 4.9),
  ('ASAGKRRCFWLGMEGLETAEGSNS [SDE2]', 'protein stability index', 3.62),
  ('DLHFKMFDVGGQRSERKKWIHCFE [GNAI1]', 'protein stability index', 1.73),
  ('RLVAPTEGSLEWDILEVKRLLDHQ [WDR41]', 'protein stability index', 2.67),
  ('GGYNLASVSVWDLAAPSLHVKEQL [TLE6]', 'protein stability index', 2.38),
  ('LMMRGVKHHNLEGLRKRIATLFFH [IQUB]', 'protein stability index', 2.34),
  ('LRRRIENGAKELWFFLQSELKKLK [FUT8]', 'protein stability index', 2.85),
  ('PPTSGCLGPVPREDQAEAWGCSCC [TSPAN10]', 'protein stability index', 4.8),
  ('MENKAMYLHTVSDCDTSSICEDSF [SCARA5]', 'protein stability index', 4.46),
  ('MVESRYALLIVDSATALYRTDYSG [RAD51]', 'protein stability index', 3),
  ('ISGGVHNGEYVPWLYCYDPVMDVW [KLHL14]', 'protein stability index', 2.32),
  ('TGELETLKERCAQDACQAQAREKE [CCDC89]', 'protein stability index', 5.46);

Entry source: the supplement of paper PMC10567573
